Molecular target: human ether-à-go-go-related gene (hERG) potassium channel (human, UniProt Q12809);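 also: peak tail current of the secondary pulse compared with the same well before compound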
Sequence (Q12809 whole entry, looked up): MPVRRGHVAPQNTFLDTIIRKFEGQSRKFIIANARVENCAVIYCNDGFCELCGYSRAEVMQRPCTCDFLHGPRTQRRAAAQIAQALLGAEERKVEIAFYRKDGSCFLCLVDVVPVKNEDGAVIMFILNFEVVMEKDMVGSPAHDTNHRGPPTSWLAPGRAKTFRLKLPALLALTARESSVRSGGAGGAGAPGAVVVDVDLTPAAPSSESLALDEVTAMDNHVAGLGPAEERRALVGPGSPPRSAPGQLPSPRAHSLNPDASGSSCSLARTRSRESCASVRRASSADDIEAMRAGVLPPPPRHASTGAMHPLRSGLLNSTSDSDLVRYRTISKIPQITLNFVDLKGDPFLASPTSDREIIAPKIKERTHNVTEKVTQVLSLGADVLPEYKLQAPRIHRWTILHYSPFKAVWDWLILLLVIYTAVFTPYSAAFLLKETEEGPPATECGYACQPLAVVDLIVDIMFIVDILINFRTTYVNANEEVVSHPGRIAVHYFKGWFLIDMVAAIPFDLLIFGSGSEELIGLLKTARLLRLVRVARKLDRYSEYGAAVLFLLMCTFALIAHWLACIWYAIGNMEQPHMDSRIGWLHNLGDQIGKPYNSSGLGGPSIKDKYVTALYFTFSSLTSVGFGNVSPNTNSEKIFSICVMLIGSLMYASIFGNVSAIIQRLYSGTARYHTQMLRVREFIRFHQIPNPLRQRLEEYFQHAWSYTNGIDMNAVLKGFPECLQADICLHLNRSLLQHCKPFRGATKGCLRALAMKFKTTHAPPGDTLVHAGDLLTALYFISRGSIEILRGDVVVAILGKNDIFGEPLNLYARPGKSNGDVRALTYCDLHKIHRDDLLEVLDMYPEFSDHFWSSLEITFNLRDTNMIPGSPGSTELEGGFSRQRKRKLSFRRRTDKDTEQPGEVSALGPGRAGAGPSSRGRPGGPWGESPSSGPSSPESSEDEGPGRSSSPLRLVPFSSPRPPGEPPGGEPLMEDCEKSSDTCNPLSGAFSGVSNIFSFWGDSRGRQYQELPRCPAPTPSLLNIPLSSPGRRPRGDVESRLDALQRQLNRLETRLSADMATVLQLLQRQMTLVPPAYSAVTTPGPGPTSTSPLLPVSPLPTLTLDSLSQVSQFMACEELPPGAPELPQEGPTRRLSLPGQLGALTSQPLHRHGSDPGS
Test: primary screen, population patch clamp on CHO cells stably expressing hERG; higher = less effect of the substance
Out of some 310,000 compounds screened, about 14,000 (4.5%) showed an effect of 50% or more. Effects have a minus sign here. What follows is part of a selection rich in strong results, with near analogues and random picks from the rest.
property: hERG current change (%, negative = inhibition) at 10uM (%)
Report only the number, with the unit % understood.

Worked examples, 4 molecules total:
[[record]]
molecule = "Cc1nn(C)c(C)c1CNC(=O)Nc1cccc(Cl)c1C"
measurement_unit = "%"
value = 1.35

[[record]]
molecule = "O=C(COC(=O)c1ccc(NS(=O)(=O)c2cccs2)cc1O)NC1CCCCC1"
measurement_unit = "%"
value = 8.92

[[record]]
molecule = "O=C(COc1ccc(Cl)cc1)NCc1nnc2c3ccccc3c(-c3ccccc3)nn12"
measurement_unit = "%"
value = -66.9

[[record]]
molecule = "Cc1ccc(NC(=O)C(=O)NCCN2CCN(C(=O)C(c3ccccc3)c3ccccc3)CC2)cc1"
measurement_unit = "%"
value = -9.93


Ask | What measured hERG current change (%, negative = inhibition) at 10uM goes with N#Cc1nc(-c2ccco2)oc1N1CCN(c2cccc(Cl)c2)CC1 ?
Reply | -16.1

Ask | Record request: hERG current change (%, negative = inhibition) at 10uM value, item Cc1cc(NC(=O)C(C)SCC(=O)N(C)CC(=O)Nc2ccc(F)cc2)no1 (stereo not shown)
Reply | 7.59

Ask | What hERG current change (%, negative = inhibition) at 10uM value was documented for this molecule, Cc1ccc(NC(=O)CN2c3cccc4cccc(c34)S2(=O)=O)cc1S(=O)(=O)N1CCOCC1 ?
Reply | 0.358

Ask | Please report the recorded hERG current change (%, negative = inhibition) at 10uM for CCOC(=O)c1[nH]c2ccc(C)cc2c1N=C(C)N(C)C .
Reply | -9.99

Ask | Need hERG current change (%, negative = inhibition) at 10uM, item COC(=O)C(NC(=O)c1ccco1)(Nc1nc(C2CC2)cs1)C(F)(F)F (stereo not shown)
Reply | 11.7

Ask | Fill in the blank: the reported hERG current change (%, negative = inhibition) at 10uM of COc1ccc(C(=O)/C=C/Nc2c(C)n(C)n(-c3ccccc3)c2=O)c(OC)c1 is ____.
Reply | 0.857

Ask | Please report the recorded hERG current change (%, negative = inhibition) at 10uM for COc1cc(OC)cc(C(=O)NCCCNC(=O)c2cccnc2)c1 .
Reply | 7.43

Ask | For the molecule shown here, CCCc1nc2c(c(=O)c3ccccc3n2C)c(=O)n1C1CCCCCC1 , give the reported hERG current change (%, negative = inhibition) at 10uM.
Reply | -10.1

Ask | Suppose we examine the molecule S=C(NCCc1ccccc1)Nc1ccc(Br)cn1 ; what hERG current change (%, negative = inhibition) at 10uM value has been reported?
Reply | 3.98

Ask | Sample O=C(COc1ccccc1)NCc1n[nH]c(=S)n1-c1ccccc1 — what was its hERG current change (%, negative = inhibition) at 10uM?
Reply | 17.5

----------
Molecular target: human ether-à-go-go-related gene (hERG) potassium channel (human, UniProt Q12809);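 also: peak tail current of the secondary pulse compared with the same well before compound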
Test: primary screen, population patch clamp on CHO cells stably expressing hERG; higher = less effect of the substance
Among all 310,000 compounds or so, about 14,000 (4.5%) showed an effect of 50% or more. The effect is printed as a negative number. Shown is part of a subset that was picked to be rich in strong results.
Quick reference: hERG current change (%, negative = inhibition) at 10uM of the listed items.

[[record]]
molecule = "CN(C)CCNc1nc(-c2ccccc2)c2c(c1C#N)CC(C)(C)OC2"
value = "-42.4%"

[[record]]
molecule = "CC(C)Cc1ccc(CN2CCCC(NC(=O)c3ccnn3C)C2)cc1 (stereo not shown)"
value = "-68.7%"

[[record]]
molecule = "Cn1nccc1C(=O)NC1CCN(Cc2ccccc2)CC1"
value = "-14.4%"

[[record]]
molecule = "CCN(Cc1ccccc1)C(=O)c1c(-c2ccccc2Cl)noc1C"
value = "-9.34%"

[[record]]
molecule = "COc1ccccc1N1CCN(C(=O)CSc2nnc3c4ccccc4nc(Cc4ccccc4)n23)CC1"
value = "-4.18%"

[[record]]
molecule = "O=C(c1cc(-c2ccccc2)n[nH]1)N1CCc2c([nH]c3ccccc23)C1c1ccccn1 (stereo not shown)"
value = "14.5%"

[[record]]
molecule = "Cc1nccc2c1[nH]c1ccccc12"
value = "2.16%"

[[record]]
molecule = "COc1ccccc1N1CCN(C(=O)CSc2nc3ccccc3nc2N2CCCCC2)CC1"
value = "19%"

[[record]]
molecule = "O=C(CCC(=O)c1ccc(Oc2ccccc2)cc1)Nc1ccc(Cl)cc1Cl"
value = "5.46%"


Ask | Any idea what hERG current change (%, negative = inhibition) at 10uM was measured for Cc1nn(C(=O)c2ccco2)c(C)c1Sc1ccc([N+](=O)[O-])cc1 ?
Reply | 20.8%
